Test system: HsCLK4 (Homo sapiens, UniProt Q9HAZ1)
Construct: purchased Eurofins (contract assay)
Sequence (Q9HAZ1 whole entry): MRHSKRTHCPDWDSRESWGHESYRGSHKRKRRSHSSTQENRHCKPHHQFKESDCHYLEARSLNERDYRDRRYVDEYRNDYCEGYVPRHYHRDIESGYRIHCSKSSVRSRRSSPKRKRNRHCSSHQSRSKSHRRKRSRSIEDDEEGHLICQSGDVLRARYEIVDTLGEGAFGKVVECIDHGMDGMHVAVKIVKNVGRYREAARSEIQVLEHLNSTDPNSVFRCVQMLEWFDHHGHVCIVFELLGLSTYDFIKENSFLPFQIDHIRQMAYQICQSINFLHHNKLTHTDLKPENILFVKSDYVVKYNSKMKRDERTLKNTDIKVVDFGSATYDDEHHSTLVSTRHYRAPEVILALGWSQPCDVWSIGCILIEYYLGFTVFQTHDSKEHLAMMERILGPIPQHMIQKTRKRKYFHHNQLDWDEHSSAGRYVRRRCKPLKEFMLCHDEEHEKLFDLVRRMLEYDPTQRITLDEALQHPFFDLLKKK
Test summary: kinase inhibition study by Eurofins
Type: biochemical
Measured property: IC50

INSERT INTO measurements (molecule, test_system, meas_value) VALUES
  ('O=[N+]([O-])c1cc(CO)ccc1-n1cc(COc2cccc3cnc(Nc4cccc(Cl)c4)nc23)nn1 [12e]', 'HsCLK4 (Homo sapiens, UniProt Q9HAZ1)', '150 to 200 nM');

###

Test system: Hs_PIM1 (Homo sapiens)
Construct: host or cells: Sf9 insect cells (baculovirus)
Sequence (P11309 whole entry): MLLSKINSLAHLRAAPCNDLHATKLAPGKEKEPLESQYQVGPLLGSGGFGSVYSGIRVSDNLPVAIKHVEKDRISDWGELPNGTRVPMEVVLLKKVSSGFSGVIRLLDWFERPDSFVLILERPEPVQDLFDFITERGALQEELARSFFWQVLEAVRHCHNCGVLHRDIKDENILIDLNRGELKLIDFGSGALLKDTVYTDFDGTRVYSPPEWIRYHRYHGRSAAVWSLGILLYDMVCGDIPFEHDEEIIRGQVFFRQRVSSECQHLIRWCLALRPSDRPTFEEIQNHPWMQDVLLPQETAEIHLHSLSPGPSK
Test summary: ADP-Glo kinase assay, primary screen
Format: biochemical
Measurement context: 1 µM, n=2; read-out: % of residual activity Hs_PIM1
Output criterion met for records whose remaining activity at 1 µM is lower than 80%, criterion not met for records at or above 80%.

INSERT INTO assay_data (molecule, answer_label) VALUES
  ('O=[N+]([O-])c1cc(CO)ccc1-n1cc(COc2cccc3cnc(Nc4cccc(Cl)c4)nc23)nn1 [12e]', 'criterion not met'),
  ('Cc1ccc(-n2cc(COc3cccc4cnc(Nc5cc(Cl)cc(Cl)c5)nc34)nn2)c([N+](=O)[O-])c1 [7b]', 'criterion not met'),
  ('COC(=O)c1ccc(-n2cc(COc3cccc4cnc(Nc5cccc(Cl)c5)nc34)nn2)c([N+](=O)[O-])c1 [12f]', 'criterion met'),
  ('O=C(O)c1ccc(-n2cc(COc3cccc4cnc(Nc5cccc(Cl)c5)nc34)nn2)c([N+](=O)[O-])c1 [12g]', 'criterion met'),
  ('N[C@H]1CC[C@@H](n2cc(COc3cccc4cnc(Nc5cccc(Cl)c5)nc34)nn2)CC1 [16a]', 'criterion met');

###

Test system: Rn_DYRK1A (Rattus norvegicus)
Construct: host or cells: bacteria
Test summary: ADP-Glo kinase assay, primary screen
Assay type: biochemical
Measurement context: 10 µM, n=2; read-out: % of residual activity Rn_DYRK1A
Measured property: remaining activity at 10 µM (%)

INSERT INTO measurements (compound, measured_property, limit_operator, meas_value) VALUES
  ('CC(C)(C)OC(=O)N[C@H]1CC[C@H](n2cc(COc3cccc4cnc(Nc5cc(Cl)cc(Cl)c5)nc34)nn2)CC1 [18b]', 'remaining activity at 10 µM', '≥', 100),
  ('Cc1ccc(-n2cc(COc3cccc4cnc(Nc5cc(Cl)cc(Cl)c5)nc34)nn2)c([N+](=O)[O-])c1', 'remaining activity at 10 µM', '=', 95),
  ('COC(=O)c1ccc(-n2cc(COc3cccc4cnc(Nc5cccc(Cl)c5)nc34)nn2)c([N+](=O)[O-])c1 [12f]', 'remaining activity at 10 µM', '=', 83),
  ('Cc1ccc(-n2cc(COc3cccc4cnc(Nc5ccccc5)nc34)nn2)c([N+](=O)[O-])c1', 'remaining activity at 10 µM', '=', 90);

###

Test summary: cytotoxic assay, nuclei count (Hoechst, HCS)
Type: cell-based
Measurement context: human, MDA-MB-231 cells (breast carcinoma); 48 h treatment; read-out: Cytotoxic studies IC50 MDA-MB-231
hey, just use satisfied if measured IC50 at 48 h is less than 6 µM, otherwise not satisfied

INSERT INTO measurements (compound, answer_label) VALUES
  ('CC(C)(C)OC(=O)N[C@H]1CC[C@@H](n2cc(COc3cccc4cnc(Nc5cc(Cl)cc(Cl)c5)nc34)nn2)CC1 [15b]', 'not satisfied'),
  ('O=[N+]([O-])c1cc(O)ccc1-n1cc(COc2cccc3cnc(Nc4cccc(Cl)c4)nc23)nn1 [12c]', 'not satisfied'),
  ('N[C@H]1CC[C@@H](n2cc(COc3cccc4cnc(Nc5cccc(Cl)c5)nc34)nn2)CC1 [16a]', 'not satisfied'),
  ('N[C@H]1CC[C@H](n2cc(COc3cccc4cnc(Nc5cc(Cl)cc(Cl)c5)nc34)nn2)CC1 [19b]', 'satisfied'),
  ('Cc1ccc(-n2cc(COc3cccc4cnc(Nc5ccccc5)nc34)nn2)c([N+](=O)[O-])c1 [7a]', 'not satisfied'),
  ('CC(C)(C)OC(=O)N[C@H]1CC[C@H](n2cc(COc3cccc4cnc(Nc5cccc(Cl)c5)nc34)nn2)CC1 [18a]', 'not satisfied'),
  ('CC(C)(C)OC(=O)N[C@H]1CC[C@H](n2cc(COc3cccc4cnc(Nc5cc(Cl)cc(Cl)c5)nc34)nn2)CC1 [18b]', 'not satisfied'),
  ('Cc1ccc(-n2cc(COc3cccc4cnc(Nc5cc(Cl)cc(Cl)c5)nc34)nn2)c([N+](=O)[O-])c1 [7b]', 'not satisfied'),
  ('N[C@H]1CC[C@@H](n2cc(COc3cccc4cnc(Nc5cc(Cl)cc(Cl)c5)nc34)nn2)CC1 [16b]', 'satisfied'),
  ('O=[N+]([O-])c1cc(Br)ccc1-n1cc(COc2cccc3cnc(Nc4cccc(Cl)c4)nc23)nn1 [12d]', 'not satisfied');

The origin of these recorded values is paper PMC9571063.
